# target: T1, Anti-CD28 Fab (SEQ ID NOs: 696, 697)
# T1 construct: In the phage ELISA the Fab was biotinylated and captured on neutravidin coated plates
# T1 sequence (VH, as listed by the source, chain 1 of 2): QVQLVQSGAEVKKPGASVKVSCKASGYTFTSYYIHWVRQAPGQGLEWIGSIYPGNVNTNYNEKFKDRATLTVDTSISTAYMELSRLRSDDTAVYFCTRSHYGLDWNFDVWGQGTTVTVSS
# T1 sequence (VL, as listed by the source, chain 2 of 2): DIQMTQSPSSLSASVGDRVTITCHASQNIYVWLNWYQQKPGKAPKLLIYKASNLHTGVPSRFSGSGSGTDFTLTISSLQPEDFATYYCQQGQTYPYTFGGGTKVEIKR
# assay: phage ELISA; Fab-coated wells pre-incubated with CD28 antigen as competitor, anti-M13-HRP detection
Returns: string. Value is TRUE if measured Phage binding ELISA, Anti-CD28 Fab signal in the presence of CD28 is below 0.08, and FALSE if it is greater than or equal to it.

// known answers, use as guide
>>> print(df.to_string())
                                     binder  label
0  YCDGHLWEYMDKCL (Tested as clonal phage supernatant) [Phage-719]   TRUE
1  YCEGHLPMYFLKCM (Tested as clonal phage supernatant) [Phage-720]   TRUE

Does this binder meet the criterion Phage binding ELISA, Anti-CD28 Fab signal in the presence of CD28 < 0.08? YCEGHAAEYMMKCL (Tested as clonal phage supernatant) [Phage-713]
TRUE

Is Phage binding ELISA, Anti-CD28 Fab signal in the presence of CD28 of YCDGHSPIYMSKCL (Tested as clonal phage supernatant) [Phage-710] strictly below 0.08?
FALSE

Is 0.08 strictly greater than the binder's reported Phage binding ELISA, Anti-CD28 Fab signal in the presence of CD28? binder: YCDGHSQEYIAKCL (Tested as clonal phage supernatant) [Phage-715]
TRUE

Below 0.08 on Phage binding ELISA, Anti-CD28 Fab signal in the presence of CD28? Entry YCEGHLSQYMQKCL (Tested as clonal phage supernatant) [Phage-709]
FALSE

Consider YCAGHLPMYMHKCL (Tested as clonal phage supernatant) [Phage-714] . Does its Phage binding ELISA, Anti-CD28 Fab signal in the presence of CD28 lie strictly below 0.08?
FALSE
